System: Salmonella enterica serovar Typhimurium SL1344
Experiment: normalized growth (OD600, IQM-normalized) in LPM (fraction of plate interquartile mean); higher = more bacterial growth (less inhibition)
Conditions: LPM pH 5.8; 10 µM; 16 h
Over roughly 1,600 compounds, “normalized growth (OD600, IQM-normalized) in LPM” has its median near 1; the lowest 2% begin near 0.014. The full list was thinned out, with the lowest values kept by preference.
Exercise: state measured normalized growth for each of the compounds provided.
Give bare numbers.

Record excerpt, results attached:
normalized growth reported for this compound C[C@H]1O[C@@H](n2cc(F)c(=O)[nH]c2=O)[C@H](O)[C@@H]1O : 0.412

Entry CC(=O)Oc1cccc(C)c1 [meta-CRESYL ACETATE] — recorded normalized growth = 0.995

Would you be so kind as to report normalized growth for each listed record?
1. CC1=CC(=O)c2ccccc2C1=O
2. CCCc1nc(C)c2c(O)nc(-c3cc(S(=O)(=O)N4CCN(CC)CC4)ccc3OCC)nn12
3. CCn1nc(C(=O)O)c(=O)c2cc3c(cc21)OCO3
4. Cl.N=C(N)NCCC[C@H](N)C(=O)O
5. OC[C@H]1O[C@@H](O[C@H]2[C@H](O)[C@@H](O)C(O)O[C@@H]2CO)[C@H](O)[C@@H](O)[C@H]1O (some centres undefined)
6. O=C(OC[C@H]1O[C@@H](OC(=O)c2cc(O)c(O)c(OC(=O)c3cc(O)c(O)c(O)c3)c2)[C@H](OC(=O)c2cc(O)c(O)c(OC(=O)c3cc(O)c(O)c(O)c3)c2)[C@@H](OC(=O)c2cc(O)c(O)c(OC(=O)c3cc(O)c(O)c(O)c3)c2)[C@@H]1OC(=O)c1cc(O)c(O)c(OC(=O)c2cc(O)c(O)c(O)c2)c1)c1cc(O)c(O)c(OC(=O)c2cc(O)c(O)c(O)c2)c1

1. 0.984
2. 1.02
3. 0.00789
4. 1
5. 1.14
6. 1.08

Data point: Oc1ccc(OCc2ccccc2)cc1 ; normalized growth = 0.91

Data origin: the supplement of paper PMC6331611
